// data source = patent US20240415914A1

# Procedure details: Stability of cannabinoid and Vitamin E components of Beverage 1 (AB White) stored at 8° C. and 21-25° C., LCMSMS over 570 days
# Format: physicochemical
# Test context: beverage stored at 8° C., day 180
Field: class. Source value: Stability in AB White, 8° C. (content by LCMSMS). Ranges: one = under 0.9 µg/mL, two = from 0.9 µg/mL up to 4 µg/mL, three = 4 µg/mL and over

Known results for compounds:
[[record]]
compound = "CCCCCc1cc2c(c(O)c1C(=O)O)[C@@H]1C=C(C)CC[C@H]1C(C)(C)O2 [D9 THCA, delta-9-tetrahydrocannabinolic acid]"
class_label = "two"

[[record]]
compound = "C=C(C)[C@@H]1CCC(C)=C[C@H]1c1c(O)cc(CCC)cc1O"
class_label = "one"

[[record]]
compound = "CCCCCc1cc(O)c(C/C=C(\\C)CCC=C(C)C)c(O)c1"
class_label = "three"

[[record]]
compound = "CCCCCc1cc(O)c2c(c1)OC(C)(CCC=C(C)C)C=C2 (stereo not shown)"
class_label = "one"

[[record]]
compound = "C=C(C)[C@@H]1CCC(C)=C[C@H]1c1c(O)cc(CCCCC)cc1O [CBD, cannabidiol, reference compound]"
class_label = "three"

[[record]]
compound = "CCCCCc1cc(O)c2c(c1)OC(C)(C)c1ccc(C)cc1-2"
class_label = "two"

[[record]]
compound = "CCCc1cc(O)c2c(c1)OC(C)(C)[C@@H]1CCC(C)=C[C@@H]21 [THCV, delta-9-tetrahydrocannabivarin]"
class_label = "two"

[[record]]
compound = "C=C(C)[C@@H]1CCC(C)=C[C@H]1c1c(O)cc(CCCCC)c(C(=O)O)c1O"
class_label = "two"

[[record]]
compound = "CCCCCc1cc(O)c2c(c1)OC1(C)CCC3C1C2C3(C)C (stereo not shown)"
class_label = "one"


Kindly review the next compound as well.
Would you mind sorting CCCCCc1cc(O)c2c(c1)OC(C)(C)[C@@H]1CCC(C)=C[C@@H]21 [D9 THC, delta-9-tetrahydrocannabinol, reference compound] into the appropriate category?
three
